# Test system: ME: LOX IMVI
# methodNotes: NCI-60 dose-response, LOX IMVI
# Assay type: cell-based, human
# conditionDescription: 48 h
propertyMeasured: LC50 (concentration giving 50% net cell kill) (nM)
// return numeric value only (unit: nM, not printed)

Ask: Form field: reported LC50 (concentration giving 50% net cell kill) of C[Se]C(=O)CC1=C(C)/C(=C/c2ccc([S+](C)[O-])cc2)c2ccc(F)cc21 (stereo not shown)
Result: 62.1

* * *

# Test system: RE: A498
# methodNotes: NCI-60 dose-response, A498
# Assay type: cell-based, human
# conditionDescription: A498, 48 h; read-out: LC50 (the source's name)
# Excerpt: NCI-60 Analysis. 1a and 6a were submitted to National Cancer Institute's (NCI) Developmental Therapeutics Program (DTP) where the cytotoxicity profile was investigated across their 60 human cancer cell line panel according to the protocol available on multiple sources (71-73, 83). […]
propertyMeasured: CC50 (nM)
// return numeric value only (unit: nM, not printed)

Ask: Form field: reported CC50 of C[Se]C(=O)CC1=C(C)/C(=C/c2ccc([S+](C)[O-])cc2)c2ccc(F)cc21 (stereo not shown) [Compound 6a]
Result: 658
